# Tested target: T1, human serum albumin (Homo sapiens, UniProt P02768)
# T1 construct: human serum albumin (HSA), purchased from Sigma-Aldrich Japan; dissolved in phosphate buffer and dialysed; also called HSA; source: bought: Sigma-Aldrich Japan
# Protocol notes: SPR; Biacore T200; HSA immobilised on CM5 chip by amine coupling (~1000 RU); increasing concentrations of antibodies injected at 30 μl/min; PBS with 0.05% Tween-20; global fit, 1:1 Langmuir model
# Study conditions: both partners purified
Assay readout: kon (M⁻¹ s⁻¹)
Field: numeric (M⁻¹ s⁻¹). Do not append units.

Use these answered entries as a reference point.
[[record]]
binder = "Z18-R50L (VHH, IMGT numbering; the methods describe vector and expression for Z18 and Z26; source: E. coli BL21 (DE3), purified (Ni-NTA, SEC)) VHH: QVQLVESGGGLVQAGDSLRLSCAASGRTFSGYAMGWFRQAPGKELEFVARINWSGTLTYYADSVKGRFTGSRDNAKNTVYLQMNSLKPEDTAVYYCAQRGDSGSNYDPSGYSYWGQGTQVTVSS"
unit_label = "M⁻¹ s⁻¹"
value_measured = 689000

[[record]]
binder = "Z18-G32D (VHH, IMGT numbering; the methods describe vector and expression for Z18 and Z26; source: E. coli BL21 (DE3), purified (Ni-NTA, SEC)) VHH: QVQLVESGGGLVQAGDSLRLSCAASGRTFSDYAMGWFRQAPGKEREFVARINWSGTLTYYADSVKGRFTGSRDNAKNTVYLQMNSLKPEDTAVYYCAQRGDSGSNYDPSGYSYWGQGTQVTVSS"
unit_label = "M⁻¹ s⁻¹"
value_measured = 696000


# context switch: different binder, same kon
**Q:** What does the record list as kon for Z18-N85S (VHH, IMGT numbering; the methods describe vector and expression for Z18 and Z26; source: E. coli BL21 (DE3), purified (Ni-NTA, SEC)) VHH: QVQLVESGGGLVQAGDSLRLSCAASGRTFSGYAMGWFRQAPGKEREFVARINWSGTLTYYADSVKGRFTGSRDNAKSTVYLQMNSLKPEDTAVYYCAQRGDSGSNYDPSGYSYWGQGTQVTVSS ?
**A:** 692000
